The origin of these recorded values is paper PMC8041284.

- measurement-target: BTK (Homo sapiens)
- test-summary: biochemical
- assay-setup: read-out: BTK inhibition (%), 0.75 uM BTK, […] probe 3l, 15 min preincubation
Each entry gets Criterion not met if its inhibition at 10 µM stays under 10%, and Criterion met if its inhibition at 10 µM is 10% or above.

molecule | group
Cc1ccc(C(=O)Nc2ccc(CN3CCN(C)CC3)c(C(F)(F)F)c2)cc1C#Cc1cnc2[nH]ncc2c1 [PCM-0215209] | Criterion met

Task: # bool: inhibition at 10 µM of CO[C@@H]1[C@@H](O[C@@H]2O[C@H](C)[C@@H](O[C@H]3C[C@@](C)(O)[C@@H](O)[C@H](C)O3)[C@H](N(C)C)[C@H]2O)[C@@H](CC=O)C[C@@H](C)[C@@H](O[C@H]2CC[C@H](N(C)C)[C@@H](C)O2)/C=C/C=C/C[C@@H](C)OC(=O)C[C@H]1OC(C)=O [PCM-0214867] >= 10%
Result: Criterion met

Task: Try this molecule too: CC(C)=CCC[C@@](C)(O)[C@H]1CC[C@]2(C)[C@@H]1[C@H](O)C[C@@H]1[C@@]3(C)CC[C@H](O[C@@H]4O[C@H](CO)[C@@H](O)[C@H](O)[C@H]4O)C(C)(C)[C@@H]3CC[C@]12C [PCM-0216344]
Result: Criterion not met

Task: # iterate: Cc1ccc(-n2nc(C(C)(C)C)cc2NC(=O)Nc2ccc(OCCN3CCOCC3)c3ccccc23)cc1 [PCM-0095136]
Result: Criterion not met

Task: Repeat for the following molecule: O=C(O)/C(Cc1ccccc1[N+](=O)[O-])=N/Nc1nc(-c2ccc(Cl)c(Cl)c2)cs1 [PCM-0215282]
Result: Criterion met

---

- measurement-target: BTK (Homo sapiens, UniProt Q06187)
- Sequence (Q06187 402-655 limits assumed): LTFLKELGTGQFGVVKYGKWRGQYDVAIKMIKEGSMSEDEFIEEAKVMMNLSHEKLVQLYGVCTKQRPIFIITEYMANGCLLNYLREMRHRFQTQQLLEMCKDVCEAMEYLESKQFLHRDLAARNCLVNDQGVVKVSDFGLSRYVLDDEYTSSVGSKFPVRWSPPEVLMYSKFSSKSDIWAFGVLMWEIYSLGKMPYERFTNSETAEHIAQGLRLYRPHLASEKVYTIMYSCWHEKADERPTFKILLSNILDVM
- test-summary: biochemical
- assay-setup: read-out: BTK inhibition (%), 0.75 uM BTK, […] probe 3l, 15 min preincubation
# key: entry, value: inhibition at 10 µM
Form entry: value (%) — number only.

// known answers, use as guide
compound | measurement-target | unit-symbol | inhibition at 10 µM
COc1c/c(=C2\C=c3ccccc3=N2)[nH]/c1=C\c1[nH]c(C)cc1C [PCM-0094986] | BTK (Homo sapiens, UniProt Q06187) | % | 133
CCCCC1C(=O)N(c2ccccc2)N(c2ccccc2)C1=O [PCM-0065475] | BTK (Homo sapiens, UniProt Q06187) | % | -17.2
CCOC(=O)c1c(CSc2ccccc2)n(C)c2cc(Br)c(O)c(CN(C)C)c12 [PCM-0095296] | BTK (Homo sapiens, UniProt Q06187) | % | 10.1
Cc1cnc(C(=O)N[C@H]2CCCCC/C=C\[C@@H]3C[C@@]3(C(=O)NS(=O)(=O)C3CC3)NC(=O)[C@@H]3C[C@@H](Oc4nc5ccccc5c5ccccc45)CN3C2=O)cn1 [PCM-0216057] | BTK (Homo sapiens, UniProt Q06187) | % | 53.3
CCS(=O)(=O)N1CCN(c2ccc(Nc3ncc(C(N)=O)c(NC4CC4)n3)cc2)CC1 [PCM-0215389] | BTK (Homo sapiens, UniProt Q06187) | % | 85.5
CN(C)CCOC(c1ccccc1)c1ccccc1 [PCM-0065230] | BTK (Homo sapiens, UniProt Q06187) | % | 2.1

Task: What does the data say about its inhibition at 10 µM? Entry: CCNC(=O)c1[nH]nc(-c2cc(Cl)c(O)cc2O)c1-c1ccc(OC)cc1 [PCM-0215298]
Result: 21.6

Task: Similarly, O=C(O)CCc1ccc(NCc2cccc(Oc3ccccc3)c2)cc1 [PCM-0065313] ?
Result: -41.4
